Test system: Plasmodium berghei
Test: Screen against P. berghei liver stage (PbLuc), transformed with Luciferase, at 10uM
Format: functional, HepG2
Details: tested at 10 uM
About 8,600 (12%) of roughly 69,000 compounds showed an effect of 50% or more. Many of the other results were omitted from the sample, so strong results are more common in it than they were.
reportedEndpoint: INHIBITION
Just so you know, I need the unit written after the number.

These recorded examples may help you get a feel for the data.
Field INHIBITION (entry Cc1nc(COCc2cnc3n2CCN(C(=O)C2CC2)C3C)cs1 (centres undefined) ) reads 33%

Field INHIBITION (entry "COc1ccc(CN2C[C@H]3CN(c4ccsc4)C(=O)[C@H]3C2)cc1" ) reads 50%

Field INHIBITION (entry O=C(N1CCCC1)N1Cc2nccn2CC(COc2cccnc2)C1 (centres undefined) ) reads -21.1%

Continuing:
Field INHIBITION (entry "Nc1ccnc(N2C[C@H]3CC[C@@H](C2)N(CC2CCC2)C3=O)n1" ) reads -32.4%

---

Test system: Plasmodium berghei
Experiment: Screen against P. berghei liver stage (PbLuc), transformed with Luciferase, at 10uM
Format: functional, HepG2
Details: tested at 10 uM
The campaign covered roughly 69,000 compounds. About 8,600 (12%) showed an effect of 50% or more. The sample holds strong results, similar compounds and a random draw of the others, so the mix is not that of the screen.
// reported INHIBITION per item
Enter your answer as a number in %; do not include the unit.

These recorded examples may help you get a feel for the data.
Entry "Cn1cc(I)c(C(=O)NC2CCCC2)n1" under Plasmodium berghei had INHIBITION of -13.2

Entry "COc1ccccc1C(=O)N(C)Cc1ncc(C)c(OC)c1C" under Plasmodium berghei had INHIBITION of -11.7

Entry "COc1cccc(NC(=O)NCc2cnn(C)c2)c1" under Plasmodium berghei had INHIBITION of 13

Entry Cc1nn(C)c(Cl)c1C1CCCN1Cc1cccc(C(N)=O)c1 (stereo not drawn) under Plasmodium berghei had INHIBITION of 11.2

Entry "CCN1CCN(Cc2nc(C)no2)CC1" under Plasmodium berghei had INHIBITION of 0.818

Continuing:
Entry "CC(C)(O)CN1CCN(C(=O)c2cccn2Cc2ccncc2)CC1" under Plasmodium berghei had INHIBITION of 19.2

Entry CN1CCOC(CNCc2cccc(OCC(F)(F)F)c2)C1 (stereo not drawn) under Plasmodium berghei had INHIBITION of 21.7

Entry "COc1c(C)cnc(CN(C)C2CCN(C3CCOCC3)CC2)c1C" under Plasmodium berghei had INHIBITION of 7.24

---

// reported INHIBITION per item
System: Plasmodium berghei
Experiment: Screen against P. berghei liver stage (PbLuc), transformed with Luciferase, at 10uM
Assay type: functional, HepG2
Settings: tested at 10 uM
In all, about 69,000 compounds went through this assay and about 8,600 (12%) showed an effect of 50% or more. Only a selection was taken, and strong results are over-represented in it overall.
Enter your answer as a number in %; do not include the unit.

These recorded examples may help you get a feel for the data.
Entry CCOc1ccc(CN2CCOCC2c2[nH]ncc2C)cc1CO (stereo not given) under Plasmodium berghei had INHIBITION of 29.65

Entry CCOCc1ccccc1NC(=O)NC1CCN(C2CCCC2)C1 (stereo not given) under Plasmodium berghei had INHIBITION of 58.6

Continuing:
Entry "CCN1CCNC(=O)C12CCN(C(=O)Cc1ccsc1)CC2" under Plasmodium berghei had INHIBITION of -23.1

Entry CCOCc1ccccc1NC(=O)NC1CCN(CC(F)(F)F)C1 (stereo not given) under Plasmodium berghei had INHIBITION of 38.3

Entry "COCC(=O)NCc1cc(=O)n2c(n1)CN(Cc1ccco1)CCC2" under Plasmodium berghei had INHIBITION of 47.5

Entry Cn1ccnc1CNCC1CCCN1c1cccnn1 (stereo not given) under Plasmodium berghei had INHIBITION of -31.5

Entry "Cc1n[nH]cc1CNC(=O)Nc1cccc(OCC(F)(F)F)c1" under Plasmodium berghei had INHIBITION of 60.3

Entry "CN(C)CCCNC(=O)c1ccc(Cl)cc1Cl" under Plasmodium berghei had INHIBITION of 16

Entry "CC(=O)Nc1ncc(-c2ccc(C)cc2)[nH]1" under Plasmodium berghei had INHIBITION of 45.5

---

System: Plasmodium berghei
Assay: Screen against P. berghei liver stage (PbLuc), transformed with Luciferase, at 10uM
Format: functional, HepG2
Conditions: tested at 10 uM
Screen size: about 69,000 compounds; about 8,600 (12%) showed an effect of 50% or more. The sample holds strong results, similar compounds and a random draw of the others, so the mix is not that of the screen.
reportedEndpoint: INHIBITION

Entry Cc1ccc(-c2nnc(C(C)NCCn3cc(C)cn3)o2)cc1 (stereo not drawn) under Plasmodium berghei had INHIBITION of -3.87%

Entry "COC(=O)CCCC(=O)N1CCC(CO)(CCc2ccccc2)CC1" under Plasmodium berghei had INHIBITION of 30.7%

Entry CC(C)n1cnnc1CN1CCC2(CCCN(C3CCCCC3)C2=O)C1 (stereo not drawn) under Plasmodium berghei had INHIBITION of -64.1%

Entry O=C1NC(c2cnc(C3CCC3)s2)Nc2ncccc21 (stereo not drawn) under Plasmodium berghei had INHIBITION of -44.2%

Continuing:
Entry "Cc1cc2c(=O)n(CCSc3ncn[nH]3)cnc2s1" under Plasmodium berghei had INHIBITION of 29.4%

Entry Cc1cc(CN(C)C(C(=O)O)c2ccc(C(C)(C)C)cc2)on1 (stereo not drawn) under Plasmodium berghei had INHIBITION of 58.4%

Entry Fc1cnc(N2CCC3(CC2)CC(OCc2cccnc2)CO3)nc1 (stereo not drawn) under Plasmodium berghei had INHIBITION of 30.5%

Entry "CC(=O)Nn1c(C)cc(CN2CCCN(Cc3ccncc3)CC2)c1C" under Plasmodium berghei had INHIBITION of 20.4%

---

Tested on: Plasmodium berghei
Assay: Screen against P. berghei liver stage (PbLuc), transformed with Luciferase, at 10uM
Format: functional, HepG2
Details: tested at 10 uM
In all, about 69,000 compounds went through this assay and about 8,600 (12%) showed an effect of 50% or more. What follows is part of a selection rich in strong results, with near analogues and random picks from the rest.
Each record is given rule met if its reported INHIBITION is strictly below 20%. Records at or above 20% are given rule not met.

Here's an entry: Cc1nc(C)c(C(=O)N2CCCC(n3ccnc3C)C2)s1 (stereo unspecified) . Is its INHIBITION below 20%?
rule not met

Here's an entry: "CC(C)CSCCCNC(=O)C1CCOCC1" . Is its INHIBITION below 20%?
rule met

Here's an entry: O=C(Cn1nnc(-c2ccc(F)cc2)n1)N1CCOCC(O)C1 (stereo unspecified) . Is its INHIBITION below 20%?
rule not met

Here's an entry: CCn1cnnc1CNC(=O)N(C)C(C)c1cccs1 (stereo unspecified) . Is its INHIBITION below 20%?
rule met

Here's an entry: "CCc1nc(CSc2nnc(N)n2C2CC2)no1" . Is its INHIBITION below 20%?
rule not met

Here's an entry: O=C(CCCn1nnc(-c2ccc(F)cc2)n1)N1CCOCC(CO)C1 (stereo unspecified) . Is its INHIBITION below 20%?
rule not met

---

// reported INHIBITION per item
Tested on: Plasmodium berghei
Experiment: Screen against P. berghei liver stage (PbLuc), transformed with Luciferase, at 10uM
Type: functional, HepG2
Settings: tested at 10 uM
Screen size: about 69,000 compounds; about 8,600 (12%) showed an effect of 50% or more. Many of the other results were omitted from the sample, so strong results are more common in it than they were.
Just so you know, I need the unit written after the number.

Field INHIBITION (entry "CCc1cnc(N2C[C@@H]3C[C@H](C(=O)N4CCOCC4)[C@H](C2)O3)nc1" ) reads 28.5%

Field INHIBITION (entry "O=C1COC2(CCN(c3ccccn3)CC2)CN1" ) reads -23.3%

Field INHIBITION (entry Cc1cc(NC(C)c2nncn2C2CCCC2)n2nc(C)c(C)c2n1 (centres undefined) ) reads 32.1%

Turning now to a further record.
Field INHIBITION (entry CNC(=O)C1CN(C(=O)COc2ccccc2)Cc2cn(C)nc21 (centres undefined) ) reads 42.6%

---

System: Plasmodium berghei
Test: Screen against P. berghei liver stage (PbLuc), transformed with Luciferase, at 10uM
Format: functional, HepG2
Conditions: tested at 10 uM
Screen size: about 69,000 compounds; about 8,600 (12%) showed an effect of 50% or more. The full list was thinned out, with strong results kept by preference.
reportedEndpoint: INHIBITION (%)
Enter your answer as a number in %; do not include the unit.

These recorded examples may help you get a feel for the data.
Field INHIBITION (entry "COc1ccc(OC)c(CN2CCN(Cc3cscn3)CC2)c1" ) reads 1.06

Field INHIBITION (entry "CS(=O)(=O)N1CCO[C@@H]2CN(C(=O)c3cccnc3)C[C@@H]2C1" ) reads 2.7

Field INHIBITION (entry "COC(=O)C1CCN(C(=O)Cn2ccc(-c3ccccc3)n2)CC1" ) reads -35

Field INHIBITION (entry CC(C)C1SCC(=O)Nc2c1cnn2-c1ccc(F)cc1 (stereo not given) ) reads 8.99

Turning now to a further record.
Field INHIBITION (entry "COC(=O)CCSc1nncn1-c1ccc(OC)nc1" ) reads 22.6

Origin of measurements: ChEMBL document CHEMBL4513216
